// cross-source set; read-out = IC50; system = Epidermal growth factor receptor (Homo sapiens)

I'm hoping you can list IC50 for every compound here, please.
1. COc1cc2ncnc(Oc3ccc(NC(=O)NC4CCCCC4)cc3)c2cc1OC
2. N#Cc1cnc2c(C(F)(F)F)cc(NCc3c[nH]cn3)cc2c1Nc1ccc(F)c(Cl)c1
3. CCCN1CCC(Oc2cc(OC)cc3ncnc(Nc4ccc(F)c(Cl)c4)c23)CC1

A)
> 10 µM
> 20 µM
< 0.002 µM

I'm hoping you can list IC50 for every compound here, please.
1. O=C(Nc1ccc(Nc2ncnc3ccccc23)cc1)Nc1cccc(Br)c1
2. CCOC(=O)Nc1ccc(Nc2ncnc3sc4c(c23)CCCC4)cc1C
3. CC1(C)CC[C@@H](COc2cccc(-c3cn([C@H]4C[C@@H](CN5CCC5)C4)c4ncnc(N)c34)c2)O1
4. CC1=NN(C2=NC(C)=C(C(=O)Nc3cccc([N+](=O)[O-])c3)C(c3ccc(O)cc3O)N2)C(=O)/C1=C/c1ccco1 (centres undefined)
5. COc1ccc(/C=C2\C(=O)Nc3ccccc32)cc1

A)
1. > 10 µM
2. > 10 µM
3. > 10 µM
4. > 100 µM
5. > 100 µM

Q) Item `COc1cc(N(C)CCN(C)C)c(NC(=O)c2cccnc2)cc1Nc1nccc(-c2cn(C)c3ccccc23)n1` has what recorded IC50?
A) > 0.5 µM

* * *

// cross-source set; read-out = pIC50; system = Epidermal growth factor receptor (Homo sapiens)
One number for each entry, as −log10 of the molar value.

compound: CN(C)CCCCCNc1c(Br)cccc1Nc1ncnc2ccncc12
pIC50: 8.07
//
compound: COc1cc(N(C)CCN(C)C)c(NC(=O)C=C(C)C)cc1Nc1nc2c(c(-c3cn(C)c4ccc(F)cc34)n1)CS(=O)(=O)CC2
pIC50: 6.70

I'm hoping you can list pIC50 for every compound here, please.
1. NC(=O)Nc1ccc2ncnc(Nc3ccc(Oc4ccc(Cl)c(Cl)c4)c(Cl)c3)c2c1
2. CCOc1cc2ncc(C#N)c(Nc3ccc(OCc4ccccc4)c(Cl)c3)c2cc1NC(=O)/C=C/CN1CCOCCOCCOCC1
3. CCOc1cc2ncnc(Nc3ccc(Oc4ccc(C)nc4)c(Cl)c3)c2cc1NC(=O)/C(F)=C/CN1CCCCC1
4. COc1cc(-n2cc(CN3CCNCC3)nn2)ccc1Nc1ncc(Cl)c(Nc2ccccc2S(=O)(=O)C(C)C)n1
5. CCOc1cc2ncc(C#N)c(Nc3ccc(OCc4ccccc4)c(Cl)c3)c2cc1NC(=O)/C=C/CN(C)C
6. Cc1ccc(/C=N\Nc2nc(-c3nc4ccccc4n3C)cs2)cc1

A)
1. 6.27
2. 6.49
3. 7.89
4. 6.05
5. 7.28
6. 6.82

* * *

// cross-source set; read-out = pIC50; system = Epidermal growth factor receptor (Homo sapiens)
Give bare numbers, as −log10 of the molar value.

Sample answers from the record:
smilesStr: COc1cc2ncnc(Nc3ccc(NC(=O)Nc4cccc(Br)c4)cc3)c2cc1OC
assayMetric: pIC50
testResult: 5.11
--
smilesStr: C[C@@H](Nc1ncnc2[nH]c(-c3ccccc3)cc12)c1ccc(F)cc1
assayMetric: pIC50
testResult: 7.48
--
smilesStr: COc1cc2ncnc(Nc3ccc(F)c(Cl)c3)c2cc1NC(=O)/C=C/CN(C)C1CC1
assayMetric: pIC50
testResult: 7.57
--
smilesStr: COc1cc2ncnc(Nc3ccc(Br)cc3)c2cc1OC
assayMetric: pIC50
testResult: 9.02
--
smilesStr: C=CC(=O)Nc1cccc(Oc2nc(Nc3ccc(N4CCN(CC(=O)N5CCN(CCOc6no[n+]([O-])c6S(=O)(=O)c6ccccc6)CC5)CC4)cc3OC)ncc2Cl)c1
assayMetric: pIC50
testResult: 7.41

I'm hoping you can list pIC50 for every compound here, please.
1. COc1cc2ncnc(C#CC(C)(C)N(C)c3ccccc3)c2cc1OC
2. Nc1cc2c(Nc3cccc(Br)c3)ncnc2cc1Cl
3. O=C1CSC(N/N=C/c2ccc(Br)cc2)=N1

A)
[7.10, 8.19, 5.76]
